Cited source: paper PMC5021521

- system-tested: T1, MyoVc-GTD (human, aa 1350-1742) (human, UniProt Q9NQX4 1350-1742)
- T1 chain: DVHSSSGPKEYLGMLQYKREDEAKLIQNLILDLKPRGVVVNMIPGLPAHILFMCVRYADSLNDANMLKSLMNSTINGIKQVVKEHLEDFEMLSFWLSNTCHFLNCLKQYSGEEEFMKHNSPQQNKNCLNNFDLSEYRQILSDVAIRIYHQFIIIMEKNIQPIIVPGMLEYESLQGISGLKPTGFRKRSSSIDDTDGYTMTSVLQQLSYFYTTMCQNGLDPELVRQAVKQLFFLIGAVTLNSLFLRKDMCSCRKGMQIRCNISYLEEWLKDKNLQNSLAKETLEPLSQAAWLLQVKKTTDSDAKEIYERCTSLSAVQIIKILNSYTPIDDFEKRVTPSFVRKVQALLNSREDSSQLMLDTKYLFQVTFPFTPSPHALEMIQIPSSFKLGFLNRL
- assay-notes: MST
Ends that are not written are not given here. * marks the point of attachment. 5FAM = O=C1OC2(c3ccc(O)cc3Oc3cc(O)ccc32)c2ccc(C(=O)*)cc21; Ahx = NCCCCCC(=O)O
readout: pKd
In simple prose, pKd is minus the logarithm base ten of a concentration in moles per litre.

Query: Using the record for {5FAM-Ahx}-QRPRPRVLLKAPTLAEMEEMNTSEEEE (also called Fluorescein-Spir2 peptide; fluorescein labeled Spir-2-401-427 peptide; source: synthetic peptide, bought: GenScript) [Fluorescein-Spir-2-GTBM peptide] , report its pKd.
Response: 5.54
